target-or-test-system: LMO7, Q8WWI1
Sequence (Q8WWI1 1037-1138): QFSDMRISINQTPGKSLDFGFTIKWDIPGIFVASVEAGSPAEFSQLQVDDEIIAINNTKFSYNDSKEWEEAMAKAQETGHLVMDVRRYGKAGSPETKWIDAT
experiment-description: holdup assay
Set-up: key: below the threshold = too weak to quantify, mostly under pKd 3.1 to 4
condition-description: plain residues with an end cap or a label only (N-terminal biotin on a linker: ttds)
measured-endpoint: pKd

These solved cases illustrate the format of a correct answer.
# binder, pKd
records = [
    ("SGSRPSATVV [HPV73-E6, Q82005]", "below the threshold"),
    ("SSLQSLETSV [ATP2B4, P23634]", 4.5),
    ("RLPKIKETTV [FRMPD4, Q14CM0]", 4.45),
    ("RPLPRKVSQL [DOCK4, Q8N1I0]", "below the threshold"),
    ("RHTTSTETAV [HPV30-E6, P36809]", "below the threshold"),
    ("RLQRRRETQV [HPV18-E6, P06463]", "below the threshold"),
]

Here is the next item to consider.
Query string: pKd lookup needed for QRQARSETLV [HPV59-E6, Q81964] , thanks.
Result string: below the threshold

This collection of values is drawn from paper PMC9482650.
